All values here come from PubChem BioAssay (NCI).

Test system: HCT-15 colon
ASSAY_COMMENT: NCI tumour cell line growth inhibition, 48 h
RECORDED_METRIC: TGI (µM)
Value expressed in µM; do not type the unit.

CC1OC2OC3C(OCC(O)C3O)OC(=O)[C@]34CCC(C)(C)CC3C3=CCC5[C@@]6(C)C[C@H](O)[C@H](OC7OC(CO)C(O)C(O)C7OC7OCC(OC(=O)CC(C)(O)CC(=O)OC1C(OC1OC(CO)C(O)C(O)C1O)C2O)C(O)C7O)[C@@](C)(CO)C6CC[C@@]5(C)[C@]3(C)CC4 (stereo not given in full); 22.5

Query :: Which TGI is listed for CCC(CC(C)C)Nc1ccc(NC(CC)CC(C)C)cc1 (stereo not given) ?
Result :: 27.9

Query :: Which TGI is listed for O=C(/C=C/c1cccs1)c1ccccc1Cl ?
Result :: 33.4

Query :: Which TGI is listed for Cc1cc(Cl)ccc1NS(=O)(=O)c1ccc(-c2cnc(C3CC3)o2)cc1 ?
Result :: 12.2

Query :: Which TGI is listed for CCSC(SCC)=C1C(=O)N(c2ccccc2)N=C1C ?
Result :: 24.7
